What self-cleavage was measured for each of the following?
B1: HDV Ribozyme (parent)
chain: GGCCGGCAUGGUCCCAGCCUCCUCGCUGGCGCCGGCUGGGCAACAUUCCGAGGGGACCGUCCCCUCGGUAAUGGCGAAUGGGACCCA

Variants of: B1
Assay: self-cleavage, relative activity (ratio to wild type); higher = more cleavage; co-transcriptional
Answers are plain numbers.

Recorded self-cleavage, per entry:
[
  {
    "primarySequence": "GGCCGACAUGGUCCCAGCCUCCUCGCUGGCGCCGGCUGGGCAACAUUCAGAGGGGACCGUCCCCUCGGUAAUGGCGAAUGGGACCCA [G6A C49A]",
    "quantityKind": "self-cleavage",
    "observedResult": 0.566
  },
  {
    "primarySequence": "GGCCGGCAUGGUCCCAGCCUCCCCGCUGGCGCCGGCUGGGCAACAUUCCGAGGGGACCGUCCCCUCGGUAAUGGUGAAUGGGACCCA [U23C C75U]",
    "quantityKind": "self-cleavage",
    "observedResult": 0.0739
  },
  {
    "primarySequence": "GGCCUGCAUGGUCCCAGCCUCCUCGCUGGCGCCGUCUGGGCAACAUUCCGAGGGGACCGUCCCCUCGGUAAUGGCGAAUGGGACCCA [G5U G35U]",
    "quantityKind": "self-cleavage",
    "observedResult": 0.108
  },
  {
    "primarySequence": "GGCCGGCAUGGUCCCAGCCUCCGCGCUGGCGCCGGCUCGGCAACAUUCCGAGGGGACCGUCCCCUCGGUAAUGGCGAAUGGGACCCA [U23G G38C]",
    "quantityKind": "self-cleavage",
    "observedResult": 0.095
  },
  {
    "primarySequence": "GGCCGGCAUGGUCCCAGCCUCCUCGCUGGCGCCGGCUGGGCAACAUUCGGAGGGGACCGUCCCCUCGGUAAUGGCGAAUGGGACGCA [C49G C85G]",
    "quantityKind": "self-cleavage",
    "observedResult": 0.712
  },
  {
    "primarySequence": "GGCCGGCAUGGUCCCAGCCUCCUCGCUGGCGCCGGAUGGGCAACAUUCCGAGGGAACCGUCCCCUCGGUAAUGGCGAAUGGGACCCA [C36A G55A]",
    "quantityKind": "self-cleavage",
    "observedResult": 0.188
  },
  {
    "primarySequence": "GGCCGGCAUGGUCCCAGCCUCCUCGUUGGCGCCGGCUGGGCAACAUUCCGAGGGGACGGUCCCCUCGGUAAUGGCGAAUGGGACCCA [C26U C58G]",
    "quantityKind": "self-cleavage",
    "observedResult": 0.831
  },
  {
    "primarySequence": "GGCCGGCAUGGUCCCAGCCUCCUCGCUGGCGCCGGCUGGGCAACAUUCCGAGGGGUCCGUCCCCUCGGUAACGGCGAAUGGGACCCA [A56U U72C]",
    "quantityKind": "self-cleavage",
    "observedResult": 0.489
  }
]

Could I get self-cleavage for every one of these entries?
1. GGCCGGCAUGGUCCCAGCCUCCUCGCGGGCGCCGGCUGGGCAACAUUCCGAGGGGACCGUCCCCUCGGUAAUGGCGAAUCGGACCCA [U27G G80C]
2. GGCCGGCAUGGUCCCAGGCUCCUCGCUGGCGCCGGCUGGUCAACAUUCCGAGGGGACCGUCCCCUCGGUAAUGGCGAAUGGGACCCA [C18G G40U]
3. GGCCGGCAUGGUCCCAGCCGCCUCGCUGGCGCCGGCUGGACAACAUUCCGAGGGGACCGUCCCCUCGGUAAUGGCGAAUGGGACCCA [U20G G40A]
4. GGCCGGCAUGGUCCCGGCCUCCUCGCUGGCGCCGGCUGGGCAUCAUUCCGAGGGGACCGUCCCCUCGGUAAUGGCGAAUGGGACCCA [A16G A43U]
5. GGCCGGCAUGGUCCCAGCCUCCUCGCUGGCGCCGCCUGGGCAACAUUCCGAGGGGACCGCCCCCUCGGUAAUGGCGAAUGGGACCCA [G35C U60C]
6. GGCCGGCAUGGUCCCAGCCUCCUCGCUGGCGCCGGCUGGGCAACAUUCCGAGGGGACCGUCCCGUCGGUAAUGGCGAAUGGAACCCA [C64G G82A]

Reply:
1. 0.213
2. 0.0489
3. 0.374
4. 0.623
5. 0.237
6. 0.535

Could I get self-cleavage for every one of these entries?
1. GGCCGGCAUGGUCCCAGCCUCGUCGCUGGCGCCGGCUGGGCGACAUUCCGAGGGGACCGUCCCCUCGGUAAUGGCGAAUGGGACCCA [C22G A42G]
2. GGCCGGCAUGGUCCCAGCCUCCUCGCUGGCGCCGGCUUGGCAACAUUCCGAGCGGACCGUCCCCUCGGUAAUGGCGAAUGGGACCCA [G38U G53C]
3. GGCCGGCAUGCUCCCAGCCUCCUCGCUGGCGCUGGCUGGGCAACAUUCCGAGGGGACCGUCCCCUCGGUAAUGGCGAAUGGGACCCA [G11C C33U]
4. GGCCGGCAUGGUCCCAGCCUCCUCGCUGGCGCCGGCUGGGCAACAUUCCGAGGGGACCGUCCCCUCUGUAAUGGCGAAUGCGACCCA [G67U G81C]
5. GGCCGCCAUGGUCCCAGCCUCCUCGCUGGCGCCGGCUGGGCAACAUUCCGAGGUGACCGUCCCCUCGGUAAUGGCGAAUGGGACCCA [G6C G54U]
6. GGCCGGCAUGGUCCCAGCCUCCUCGCUGGCGCCGGCUGGGCAAGAUUCCGAGGGGACCGUCCCCUCGGUAAUGGCCAAUGGGACCCA [C44G G76C]
7. GGCCGGCAUGGUCCCAGCCUCCUCUCUGGCGCCGGCUGGGCCACAUUCCGAGGGGACCGUCCCCUCGGUAAUGGCGAAUGGGACCCA [G25U A42C]
8. GGCCGGCAUGGUCCCAGCCUCCUCGCUGGCGCCGGCUGGGCAACAUUCUGAGGGGACCGUCCCCUCGGUACUGGCGAAUGGGACCCA [C49U A71C]

Reply:
[0, 0.434, 0.256, 0.305, 0.231, 0.511, 0.135, 0.641]

Could I get self-cleavage for every one of these entries?
1. GGCCGGCAUGGUCCCAGCCUCCUCGCUGGCGCCGGCUGGGGAACGUUCCGAGGGGACCGUCCCCUCGGUAAUGGCGAAUGGGACCCA [C41G A45G]
2. GGCCGGCAUGGUCCCAGCGUCCUCGCUGGCGCCGGCUGGGCAACAUUCCGAGGGGACCGUCCCCUCGGUUAUGGCGAAUGGGACCCA [C19G A70U]
3. GGUCGGCAUGGUCCCAGCCUCCUCGCUGGCGCCGGCUGGGCAACAUUCCGAGGGGACCGUCCCCUCGGUAAUGGCGACUGGGACCCA [C3U A78C]

Reply:
1.01
0.102
0.04

Could I get self-cleavage for every one of these entries?
1. GGCCGGCAUGGUCCCAUCCUCCUCGCUGGCGCCGGCUGGGCAACAUUCCGAGGGGACCGUACCCUCGGUAAUGGCGAAUGGGACCCA [G17U C61A]
2. GGCCGGCAUGGUCCCAGCCUCCUCGCUGGCGCCCGCUGGGCAACAUUCCGAGGGGACCGUCCCCUCGGUAAUGUCGAAUGGGACCCA [G34C G74U]
3. GGCCGGCAUGGUCCCAGCCUCCUCGCUGGCGCCGGCUGGGCACCAUUCCGAGGGGACCGUCCCCUCGGUAAUGGUGAAUGGGACCCA [A43C C75U]
4. GGCCGGCAUGGUCCCAGCCUACUCGCUGGCGCCGGCUGCGCAACAUUCCGAGGGGACCGUCCCCUCGGUAAUGGCGAAUGGGACCCA [C21A G39C]
5. GGCCGGCAUGGUCCCAGCCUCCUCGCUGGCGCCGGGUGGGCAACAUUCCGAGGGGACCAUCCCCUCGGUAAUGGCGAAUGGGACCCA [C36G G59A]
6. GGCCGGCAUGGUCCCAGCCUGCUCGCUGGCGCCGGCGGGGCAACAUUCCGAGGGGACCGUCCCCUCGGUAAUGGCGAAUGGGACCCA [C21G U37G]
7. GGCCGGCAUGGUCCCAGCCUCCUCGCUGGCGCCGGCUGGGCAACAUUCCGAAGGGACCGUCCCUUCGGUAAUGGCGAAUGGGACCCA [G52A C64U]
8. GGCCGGCAUGGUCCGAGCCUCCUCGCUGGAGCCGGCUGGGCAACAUUCCGAGGGGACCGUCCCCUCGGUAAUGGCGAAUGGGACCCA [C15G C30A]

Reply:
[0.456, 0.136, 0.172, 0.113, 0.169, 0.166, 0.992, 0.147]

Could I get self-cleavage for every one of these entries?
1. GGCCGGCAUGGUCCCAGCCUCCUCGCUGGCGCCGGCUGGGCAACAUUCCGAGGGGACCGUCCUCUCGGUAAAGGCGAAUGGGACCCA [C63U U72A]
2. GGCCGGCAUGGUCCCAGCCUCCUCGCUGGCGCCGGCUCGGCAACAUUCCGAGGGGACCGUCCCCUCGGUAAUGGCGAAUGGGACCCA [G38C]
3. GGCCGGCAUGGUCCCAGCCUCCUCGCUGGCGCCGGCUUGGCUACAUUCCGAGGGGACCGUCCCCUCGGUAAUGGCGAAUGGGACCCA [G38U A42U]

Reply:
1: 0.864; 2: 0.239; 3: 0.261

Could I get self-cleavage for every one of these entries?
1. GGCCGGCAUGGUCCCAGCCUCCUCGCGGGCGGCGGCUGGGCAACAUUCCGAGGGGACCGUCCCCUCGGUAAUGGCGAAUGGGACCCA [U27G C32G]
2. GGCCGGCAUGGUCCCAGCCUCCUCGCUGGCGCCGGCUGGGCAACAUUCCGACGGGACCGUCCCCUCGUUAAUGGCGAAUGGGACCCA [G52C G68U]
3. GGCCGGCAUGGUCGCAGCCUCCUCGCUGGCGCCGGCUGGGCAACAUUCCGAGGGGACCGUCCCCUCGGUAAUGGCGAAUGGGGCCCA [C14G A83G]
4. GGGCGGCAUGGUCCCAGCCUCCUCGCUGGCGCCGGCGGGGCAACAUUCCGAGGGGACCGUCCCCUCGGUAAUGGCGAAUGGGACCCA [C3G U37G]
5. GGCCGGCAUGGUCCCAGCCUCCUCGCUGGCGCCGGCUGGGCAACAGUCCGAGGGGACCGUCCGCUCGGUAAUGGCGAAUGGGACCCA [U46G C63G]
6. GGCCGGCAUGGUCCCAGCCUCCUCGCUGGCGCCGGCUGGUCAACAUUCCGAGGGGACCGUCCCCUCGGUAAUGGCGGAUGGGACCCA [G40U A77G]
7. GGCCGGCAUGGUCCCAGCCUCCUCGCUGGCGCCGGCUGAGCAACAUUCCGAGGGGACCGUCCCCUCGGUAAUGGCCAAUGGGACCCA [G39A G76C]

Reply:
[0, 0.332, 0.268, 0.123, 0.293, 0.462, 0.57]

Could I get self-cleavage for every one of these entries?
1. GGCCGGCAUGGUCCCAGCCUCCUCGCUGGCGCCGGCUGGGCAACAUUCCGACGGGACCGUCCCCUCGGUAAUGGCGAAUGGGUCCCA [G52C A83U]
2. GGCCGGCAUGGUCCCAGCCUCCUCGCUGGCGCCGGCCGGGCAACAUUCCGAGGGGACCGUCCCUUCGGUAAUGGCGAAUGGGACCCA [U37C C64U]
3. GGCCGGCAUGGUCCCAGCCUCCUCGCUGGCGCGGGCUGGGCAACAUUCCGAGGGGACCGUCCCCUCGGUAAUGGCGAAUGGGUCCCA [C33G A83U]
4. GGCCGGCAUAGUCCCAGCCUCCUCGCUGGCGCCGGCUGGGCGACAUUCCGAGGGGACCGUCCCCUCGGUAAUGGCGAAUGGGACCCA [G10A A42G]

Reply:
1. 0.389
2. 1.19
3. 0.162
4. 0.251

Could I get self-cleavage for every one of these entries?
1. GGCCGGCAUGGUGCCAGCCUCCUCGCUGGCGCCGACUGGGCAACAUUCCGAGGGGACCGUCCCCUCGGUAAUGGCGAAUGGGACCCA [C13G G35A]
2. GGCCGGCAUGGUCCCAGCCUCCUCGCUGGAGCCGGCUGGGCAACAUUCCGAGGGGACCAUCCCCUCGGUAAUGGCGAAUGGGACCCA [C30A G59A]
3. GGCCGGCAUGGUCCCAGCCUCCUCGCUGGGGCCGGCUGGGCAACAUUCCGAGGGGACCGUCCCCUCGGUAAUGGCGCAUGGGACCCA [C30G A77C]
4. GGCCGGCAUGGUCCCAGCCUCCUCGCUGGCGCCGGCGGGGCAACAUUCCGAGGGGACCGGCCCCUCGGUAAUGGCGAAUGGGACCCA [U37G U60G]
5. GGCCGGCAUGGUCCCAGCCACCUCGCUGGCGCCGGCUGGGCAACAUUCCGAGGGGACCGUCCCCACGGUAAUGGCGAAUGGGACCCA [U20A U65A]

Reply:
0.0449
0.561
0.095
0.0831
0.0504
